Values compiled from patent US10710993B2.

Listed compounds paired with reported GI50
target: TEL-ALK-F1174L-BaF3 (Homo sapiens, UniProt Q9UM73, F1174L, cells depend on it); construct: fused on or other part: TEL (ETV6) N-terminal oligomerising part fused before the ALK intracellular/kinase part; P41212 (Transcription factor ETV6); experiment: Cell proliferation experiment (Cell-Titer GLO), TEL-ALK-F1174L-BaF3; type: cell-based; details: 72 h, read-out: IC50 TEL-ALK F1174L-BaF3
Sequence (Q9UM73 whole entry F1174L, the tested form may be a part): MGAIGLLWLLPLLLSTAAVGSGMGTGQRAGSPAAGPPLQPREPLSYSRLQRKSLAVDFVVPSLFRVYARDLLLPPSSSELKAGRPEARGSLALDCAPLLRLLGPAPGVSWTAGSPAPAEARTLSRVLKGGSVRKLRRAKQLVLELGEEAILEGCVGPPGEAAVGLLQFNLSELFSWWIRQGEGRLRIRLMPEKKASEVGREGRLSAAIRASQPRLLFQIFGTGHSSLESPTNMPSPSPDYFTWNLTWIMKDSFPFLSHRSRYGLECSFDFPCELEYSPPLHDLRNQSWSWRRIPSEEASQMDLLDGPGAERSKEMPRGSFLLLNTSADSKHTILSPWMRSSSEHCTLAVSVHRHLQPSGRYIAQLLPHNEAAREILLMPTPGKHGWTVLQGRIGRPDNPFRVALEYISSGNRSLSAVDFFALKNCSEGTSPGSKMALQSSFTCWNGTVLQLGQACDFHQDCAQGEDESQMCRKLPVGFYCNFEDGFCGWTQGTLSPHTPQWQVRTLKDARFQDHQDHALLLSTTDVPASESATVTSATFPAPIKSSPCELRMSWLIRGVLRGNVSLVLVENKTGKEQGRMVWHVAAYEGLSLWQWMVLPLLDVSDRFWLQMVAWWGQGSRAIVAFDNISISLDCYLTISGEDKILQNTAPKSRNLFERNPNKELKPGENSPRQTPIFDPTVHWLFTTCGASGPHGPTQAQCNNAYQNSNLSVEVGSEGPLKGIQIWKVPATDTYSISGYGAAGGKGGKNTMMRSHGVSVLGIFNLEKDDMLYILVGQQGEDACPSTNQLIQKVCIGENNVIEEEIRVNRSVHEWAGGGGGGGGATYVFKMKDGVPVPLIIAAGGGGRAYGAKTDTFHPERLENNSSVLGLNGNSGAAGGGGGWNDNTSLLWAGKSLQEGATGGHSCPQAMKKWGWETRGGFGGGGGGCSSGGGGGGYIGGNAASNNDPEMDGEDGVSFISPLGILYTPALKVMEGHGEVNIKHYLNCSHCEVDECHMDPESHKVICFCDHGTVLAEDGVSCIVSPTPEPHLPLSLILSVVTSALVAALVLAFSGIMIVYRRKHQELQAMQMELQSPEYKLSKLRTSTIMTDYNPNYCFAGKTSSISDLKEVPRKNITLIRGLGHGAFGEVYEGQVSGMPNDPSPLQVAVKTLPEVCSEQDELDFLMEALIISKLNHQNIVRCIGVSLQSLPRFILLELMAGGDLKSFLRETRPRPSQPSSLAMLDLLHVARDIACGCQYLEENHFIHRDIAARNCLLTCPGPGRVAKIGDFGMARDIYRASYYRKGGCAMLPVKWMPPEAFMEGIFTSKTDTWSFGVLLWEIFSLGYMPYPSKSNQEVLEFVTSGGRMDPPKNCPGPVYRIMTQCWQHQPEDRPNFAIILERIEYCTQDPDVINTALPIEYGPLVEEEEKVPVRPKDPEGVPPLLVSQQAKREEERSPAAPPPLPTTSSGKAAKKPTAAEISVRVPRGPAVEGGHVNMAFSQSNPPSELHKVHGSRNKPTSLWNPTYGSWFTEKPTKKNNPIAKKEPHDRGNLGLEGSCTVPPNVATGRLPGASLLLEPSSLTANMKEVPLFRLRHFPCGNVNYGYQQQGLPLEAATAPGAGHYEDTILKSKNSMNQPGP
READOUT_NAME: GI50

>>> df
                                   compound                               test_system  value_measured
0  Cc1cc(Nc2ncc(C(F)(F)F)c(Nc3cn(C)nc3S(=O)(=O)C(C)C)n2)c2c(c1C1CCNCC1)C[C@@H](C)O2  TEL-ALK-F1174L-BaF3 (Homo sapiens, UniProt Q9UM73, F1174L, cells depend on it)         < 10 nM
1  Cc1cc(Nc2ncc(C(F)(F)F)c(Nc3cn(C)nc3S(=O)(=O)CC(C)C)n2)c2c(c1C1CCN(C)CC1)C[C@@H](C)O2  TEL-ALK-F1174L-BaF3 (Homo sapiens, UniProt Q9UM73, F1174L, cells depend on it)        < 200 nM
2  Cc1cc(Nc2nc(Nc3cn(C)nc3S(=O)(=O)C(C)C)c3sccc3n2)c2c(c1C1CCNCC1)C[C@@H](C)O2  TEL-ALK-F1174L-BaF3 (Homo sapiens, UniProt Q9UM73, F1174L, cells depend on it)        > 500 nM
3  Cc1cc(Nc2ncc(Cl)c(Nc3cn(C)nc3S(=O)(=O)CC(C)C)n2)c2c(c1C1CCN(CCO)CC1)C[C@@H](C)O2  TEL-ALK-F1174L-BaF3 (Homo sapiens, UniProt Q9UM73, F1174L, cells depend on it)         < 10 nM
4  Cc1cc(Nc2ncc(Cl)c(Nc3cn(C)nc3S(=O)(=O)C(C)C)n2)c2c(c1C1CCN(C)CC1)C[C@@H](C)O2 [REX-D2]  TEL-ALK-F1174L-BaF3 (Homo sapiens, UniProt Q9UM73, F1174L, cells depend on it)         < 10 nM
5  Cc1cc(Nc2ncc(Cl)c(Nc3cn(C)nc3S(=O)(=O)CC(C)C)n2)c2c(c1C1CCN(C)CC1)C[C@@H](C)O2  TEL-ALK-F1174L-BaF3 (Homo sapiens, UniProt Q9UM73, F1174L, cells depend on it)         < 10 nM
